The following molecules are shown together with reported Cell survival values.
tested on: HeLa; assay: Compound was tested for antitumor activity against the human uterine cancer cell (HeLa) line at concentration of 1 x 10 e-7 M; assay type: functional
I only need the number, in %, no unit after it.

{"structure as smiles": "Cl.Cl.Cl.NCCNCc1c2ccccc2nc2ccccc12", "tgt": "HeLa", "reading unit": "%", "Cell survival": 100}

# Cell survival (molecule: Cl.Cl.Cl.NCCNCc1cccc2ccc(-c3ccccc3)nc12 ) is 77

# Cell survival (molecule: Cl.Cl.Cl.NCCNCc1ccc(-c2ccc3ccccc3n2)cc1 ) is 79

# Cell survival (molecule: Cl.Cl.Cl.NCCNCc1ccc2ccc(-c3ccccc3)nc2c1 ) is 98

# Cell survival (molecule: Cl.Cl.Cl.NCCNCc1cc(-c2ccccc2)nc2ccccc12 ) is 74

# Cell survival (molecule: Cl.Cl.NCCNCc1ccc2nc(-c3ccccc3)ccc2c1 ) is 85

====

test system: HeLa; assay: Compound was tested for antitumor activity against the human uterine cancer cell (HeLa) line at concentration of 1 x 10 e-6 M; format: functional
The following molecules are shown together with reported Cell survival values.
I only need the number, in %, no unit after it.

Example entries and their recorded answers appear below.
{"structure as smiles": "Cl.Cl.Cl.NCCNCc1cccc2ccc(-c3ccccc3)nc12", "reading unit": "%", "measured": 65}
{"structure as smiles": "Cl.Cl.Cl.NCCNCc1ccc2ccc(-c3ccccc3)nc2c1", "reading unit": "%", "measured": 70}
{"structure as smiles": "Cl.Cl.Cl.NCCNCc1c2ccccc2nc2ccccc12", "reading unit": "%", "measured": 94}
{"structure as smiles": "Cl.Cl.NCCNCc1ccc2nc(-c3ccccc3)ccc2c1", "reading unit": "%", "measured": 82}
{"structure as smiles": "Cl.Cl.Cl.NCCNCc1cc(-c2ccccc2)nc2ccccc12", "reading unit": "%", "measured": 62}

# Cell survival (molecule: Cl.Cl.Cl.NCCNCc1ccc(-c2ccc3ccccc3n2)cc1 ) is 87

====

test: Ratio of C50(GC) to that of C50(AT)
property label: Ratio
Number only, please.

{"structure as smiles": "Cl.Cl.Cl.NCCNCc1ccc(-c2ccc3ccccc3n2)cc1", "Ratio": 1.6}
{"structure as smiles": "Cl.Cl.Cl.NCCNCc1cc(-c2ccccc2)nc2ccccc12", "Ratio": 1.5}
{"structure as smiles": "Cl.Cl.Cl.NCCNCc1ccc2ccc(-c3ccccc3)nc2c1", "Ratio": 1.5}

# Ratio (molecule: Cl.Cl.Cl.NCCNCc1cccc2ccc(-c3ccccc3)nc12 ) is 1.1

====

tested on: Nucleic Acid; assay: Compound was evaluated for DNA-binding affinity using calf-thymus DNA; format: nucleic-acid assay; details: Bos taurus
The following molecules are shown together with reported C50 values.
Lab note: write values as number then unit, every time.

Example entries and their recorded answers appear below.
{"structure as smiles": "Cl.Cl.Cl.NCCNCc1ccc2ccc(-c3ccccc3)nc2c1", "C50": "11 µM"}
{"structure as smiles": "Cl.Cl.Cl.NCCNCc1ccc(-c2ccc3ccccc3n2)cc1", "C50": "7 µM"}
{"structure as smiles": "Cl.Cl.Cl.NCCNCc1cccc2ccc(-c3ccccc3)nc12", "C50": "2.1 µM"}

Consider now this further molecule.
# C50 (molecule: Cl.Cl.Cl.NCCNCc1cc(-c2ccccc2)nc2ccccc12 ) is 30 µM
